Values were extracted from PubChem BioAssay (NCI).

TGI overview
Test system: MCF7 breast
PROTOCOL: NCI tumour cell line growth inhibition, 48 h

[
  {
    "MOLECULE": "O=C(O)CCSCc1ccc(I)cc1",
    "MEASURE NAME": "TGI",
    "RESULT": "> 100 µM"
  },
  {
    "MOLECULE": "O=C(CN1CCN(c2ccc(Cl)cc2)CC1)N1CCN(c2nnc(-c3ccc(Cl)cc3)c(-c3ccc(Cl)cc3)n2)CC1",
    "MEASURE NAME": "TGI",
    "RESULT": "> 100 µM"
  },
  {
    "MOLECULE": "O=C(CC(C(=O)c1ccco1)c1cccs1)c1cccs1 (stereo not given)",
    "MEASURE NAME": "TGI",
    "RESULT": "> 100 µM"
  },
  {
    "MOLECULE": "O=C(O)[C@@H]1CCC(=O)N1C(c1ccc2c(c1)OCO2)c1ccc2c(c1)OCO2",
    "MEASURE NAME": "TGI",
    "RESULT": "> 100 µM"
  },
  {
    "MOLECULE": "O=C(Nc1ccc(Cl)cc1F)c1cc(I)ccc1O",
    "MEASURE NAME": "TGI",
    "RESULT": "18.5 µM"
  }
]

# input Checklist item: TGI tested on MCF7 breast, entry CCCCOC(=O)NC(Nc1ccc(S(=O)(=O)Nc2ccc(OC)nn2)cc1)(C(F)(F)F)C(F)(F)F , value?
# output > 100 µM

# input Checklist item: TGI tested on MCF7 breast, entry Cc1nc2ccccc2c(=O)n1NC(=O)c1ccc([N+](=O)[O-])cc1 , value?
# output > 100 µM

# input Checklist item: TGI tested on MCF7 breast, entry c1cc(-c2ccc(-c3ccc(C4=NC5CCCCC5N4)cc3)o2)ccc1C1=NC2CCCCC2N1 (stereo not given) , value?
# output 2.53 µM

# input Checklist item: TGI tested on MCF7 breast, entry CN(Cc1cnc2nc(N)nc(N)c2n1)c1ccc(C(=O)NCS(=O)(=O)O)cc1 , value?
# output > 100 µM

# input Checklist item: TGI tested on MCF7 breast, entry CCCCCCCCCCCCCCCC(=O)OCC1CCCN2CCCCC12 (stereo not given) , value?
# output > 100 µM

---

Tested on: NCI-H460 lung
Field 'call' accepts active, inactive

Worked examples follow.
[
  {
    "MOLECULE SMILES": "CN(N=O)C(=O)N[C@@H](C=O)[C@@H](O)[C@H](O)[C@H](O)CO",
    "QUALITATIVE LABEL": "inactive"
  },
  {
    "MOLECULE SMILES": "Oc1c(CN2CCCC2)cc(COCc2ccc(Br)cc2)c2cccnc12",
    "QUALITATIVE LABEL": "inactive"
  },
  {
    "MOLECULE SMILES": "CN(C)c1ccc(/C=C(\\C#N)c2nc3ccccc3n2C)cc1",
    "QUALITATIVE LABEL": "inactive"
  }
]

# input Short answer needed: outcome of this test for CC/C(=C(/CC)c1ccc([O-])cc1)c1ccc([O-])cc1.CC/C(=C(\CC)c1ccc([O-])cc1)c1ccc([O-])cc1.O=C([CH-]C(=O)c1ccccc1)c1ccccc1.O=C([CH-]C(=O)c1ccccc1)c1ccccc1.O=C([CH-]C(=O)c1ccccc1)c1ccccc1.O=C([CH-]C(=O)c1ccccc1)c1ccccc1.[Ti+4].[Ti+4] ?
# output inactive

# input Short answer needed: outcome of this test for O=C(Nc1ccc(CN2CCOCC2)cc1)c1[nH]ncc1Nc1ncnc2sccc12 ?
# output active

# input Short answer needed: outcome of this test for Oc1ccc(O)c(-c2cc(-c3ccccc3)nn2-c2ccccc2)c1 ?
# output inactive

# input Short answer needed: outcome of this test for C/C(=C\C1=C(Cl)C(=O)c2ccccc2C1=O)C(=O)O ?
# output inactive

# input Short answer needed: outcome of this test for CC/C=C\C/C=C\C[C@H](O)C/C=C1/C(=O)C=C[C@@H]1C/C=C\CCCC(=O)O ?
# output inactive

# input Short answer needed: outcome of this test for O=C(CN1CCN(c2ccc(Cl)cc2)CC1)N1CCN(c2nnc(-c3ccc(Cl)cc3)c(-c3ccc(Cl)cc3)n2)CC1 ?
# output inactive
